- targetDesc: GABA-A receptor; anion channel
- testSummary: Binding affinity against central benzodiazepine receptor(CBR).
- Format: protein-complex assay
pIC50: −log10 of the molar value.
propertyLabel: pIC50

* CCCN(CCC)C(=O)/C=C1\c2nc3ccccc3cc2C(=O)N1c1ccc(Cl)cc1 | < 6.00
* O=C1c2cccnc2CN1c1ccc(Cl)cc1 | < 6.00
* CCCN(CCC)C(=O)Cc1c(-c2ccc(Cl)cc2)nc2ccc(Cl)cn12 | 7.55
* CCCCCCN(CCCCCC)C(=O)/C=C1\c2ncccc2C(=O)N1c1ccc(Cl)cc1 | < 6.00
* CN1CCN(C(=O)OC2c3nccnc3C(=O)N2c2ccc(Cl)cn2)CC1 (stereo unspecified) | 7.54
* CCCN(CCC)C(=O)CC1c2nc3ccccc3cc2C(=O)N1c1ccc(Cl)cc1 (stereo unspecified) | < 6.00
* CCCCCCN(CCCCCC)C(=O)CC1c2nc3ccccc3cc2C(=O)N1c1ccc(Cl)cc1 (stereo unspecified) | < 6.00
* CCCCCCN(CCCCCC)C(=O)CC1c2ncccc2C(=O)N1c1ccc(Cl)cc1 (stereo unspecified) | < 6.00
* CCCN(CCC)C(=O)CC1c2ncccc2C(=O)N1c1ccc(Cl)cc1 (stereo unspecified) | 6.07
* CCCN(CCC)C(=O)/C=C1\c2ncccc2C(=O)N1c1ccc(Cl)cc1 | < 6.00

// next item, pIC50 requested
Challenge: Fill blank: measured pIC50 of the molecule CCCCCCN(CCCCCC)C(=O)/C=C1\c2nc3ccccc3cc2C(=O)N1c1ccc(Cl)cc1 is ____.
Response given: < 6.00

* * *

- targetDesc: Translocator protein (Rattus norvegicus, UniProt P16257)
- Sequence (P16257 whole entry, looked up): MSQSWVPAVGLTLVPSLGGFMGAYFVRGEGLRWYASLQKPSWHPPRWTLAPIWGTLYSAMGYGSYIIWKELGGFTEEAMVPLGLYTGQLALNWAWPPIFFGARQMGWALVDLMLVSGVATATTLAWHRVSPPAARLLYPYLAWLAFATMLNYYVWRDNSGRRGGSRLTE
- testSummary: Displacement of [3H]PK11195 from rat cerebral cortex peripheral benzodiazepine receptor (type 2)
- Format: tissue-based
propertyLabel: IC50 (nM)
Answer with a number only, understood to be in nM.

# count of solved cases: 2
• CCCN(CCC)C(=O)/C=C1\c2nc3ccccc3cc2C(=O)N1c1ccc(Cl)cc1 = 210
• CN(C(=O)/C=C1\c2nc3ccccc3cc2C(=O)N1c1ccc(Cl)cc1)c1ccc(Cl)cc1 = 610

Now examine the next entry.
Challenge: Fill in: IC50 of COc1ccc(N(C)C(=O)/C=C2\c3nc4ccccc4cc3C(=O)N2c2ccc(Cl)cc2)cc1 is ___
Response given: 320

* * *

- targetDesc: Translocator protein (Rattus norvegicus, UniProt P16257)
- testSummary: Displacement of [3H]-PK11195 from rat kidney peripheral benzodiazepine receptor (type 2)
propertyLabel: pIC50
# pIC50 is unitless: minus log10 of the molar concentration; print number only

Challenge: For the compound CN(C(=O)/C=C1\c2nc3ccccc3cc2C(=O)N1c1ccc(Cl)cc1)c1ccc(Cl)cc1 , what pIC50 is on record?
Response given: 6.85
